Origin of the recorded values: the RNAGym collection of RNA variant scans (doi:10.1126/science.aae0568)

B1: tRNA (parent)
chain: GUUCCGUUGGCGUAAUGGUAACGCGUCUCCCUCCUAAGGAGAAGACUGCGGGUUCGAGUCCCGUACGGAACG

Variants of: B1
TEST_DESCRIPTION: yeast fitness relative to wild type (ratio to wild type); higher = fitter; tRNA-Arg(CCU), competitive growth, 37 C, YPD
Fewer inactive variants are shown than the library holds.
# cutoff 0.6 applies to yeast fitness; >= gives Fulfilled, < gives Not fulfilled

| SEQUENCE_RECORD | CLASS_LABEL |
| --- | --- |
| GUUCCGUUGGGGUAAUGGUAACGGGUCUCCCUCCUAAGGAGAAGACUGUGGGUUCGAGUCCCGUACGGAACG [C11G C24G C49U] | Not fulfilled |
| GUUCCGUUGGCGUAAUCGUAAGGCGUCUCCCUCCUAAGGAGAAGACUGCGGGUUGGAGUACCGUACGGAACG [G17C C22G C55G C60A] | Not fulfilled |

Ask: Threshold query (yeast fitness >= 0.6) on GUUCCGUUGGCGUAAUGGUAACGCGUCUCCAUCCUAAGGAGAGGCCUGCGGGUUCGAGUCCCGUACGGAACG [C31A A43G A45C]
Result: Not fulfilled

Ask: Exam item: decide whether the reported yeast fitness for GUUGCGUUGGCGUAAUAGUAACGCGUCUCCCUCCUAAGGAGAAGACUGCGGGUUCGACUUCCGUACGGUACG [C4G G17A G58C C60U A69U] is at least 0.6.
Result: Not fulfilled

Ask: Determine whether measured yeast fitness meets or exceeds 0.6 for GUUCCCUUGGCGUAAUGGUAACGUGUCUCCCUCCUAACGGGAAGACUGCGGGUUCGAGUCCCGUACGGAACG [G6C C24U G38C A40G]
Result: Not fulfilled

Ask: Answer whether yeast fitness of GUUCCGUUGGCGUAAUGGUCACGCGUCUCGCUGCUAAGGAGAAGACUGCGGGUUCGAGUCCCGUACGGAACG [A20C C30G C33G] is greater than or equal to 0.6.
Result: Not fulfilled

Ask: Could you tell me if the measured yeast fitness of GUUCCGAUGGCGUAAUGGUAACGCGUCUCCCUCGUAAGGAGAAGACUGCGGGCUCGAGUCCCGUACGGAACG [U7A C34G U53C] reaches 0.6 or more?
Result: Fulfilled
